assayed-target: human orexin-1 receptor (Homo sapiens (Human))
Sequence (O43613 whole entry): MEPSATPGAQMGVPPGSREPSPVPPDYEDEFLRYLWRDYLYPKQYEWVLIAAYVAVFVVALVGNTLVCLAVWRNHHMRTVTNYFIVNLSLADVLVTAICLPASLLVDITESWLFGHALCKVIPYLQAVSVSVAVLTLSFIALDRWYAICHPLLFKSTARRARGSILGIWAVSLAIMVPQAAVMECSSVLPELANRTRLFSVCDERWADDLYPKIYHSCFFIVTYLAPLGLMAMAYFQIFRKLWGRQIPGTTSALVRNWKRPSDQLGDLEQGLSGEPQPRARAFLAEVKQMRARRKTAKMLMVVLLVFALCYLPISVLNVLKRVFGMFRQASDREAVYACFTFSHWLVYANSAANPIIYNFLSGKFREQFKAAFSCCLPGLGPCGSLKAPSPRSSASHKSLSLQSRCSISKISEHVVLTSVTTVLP
assay-comment: Intracellular calcium measurements (FLIPR), antagonism of orexin-A response
test-settings: CHO cells expressing human orexin-1 receptor, 3 nM orexin-A, geometric mean if determined several times, read-out: IC50 OX1
property-measured: IC50 (µM)

// lookup IC50 for "O=C(c1ncsc1-c1ccccc1)N1CC[C@H]1c1nc(-c2ccccc2OC(F)(F)F)no1"
0.4

// lookup IC50 for "Cc1c(Cl)cccc1-c1noc([C@@H]2CCN2C(=O)c2ccccc2-c2ccccc2)n1"
0.383

// lookup IC50 for "CCOc1ncccc1-c1nc([C@@H]2CCN2C(=O)c2cc(OC)c(C)cc2-n2nccn2)no1"
0.037

// lookup IC50 for "Cc1ccc(-c2ncccn2)c(C(=O)N2CC[C@H]2c2nnc(-c3ccccc3OC(F)(F)F)[nH]2)c1"
2

// lookup IC50 for "COc1cccc(-c2noc([C@@H]3CCN3C(=O)c3cc(C)ccc3-n3nccn3)n2)c1"
1.19

// lookup IC50 for "COc1cc(C(=O)N2CC[C@H]2c2nc(-c3cccc(F)c3OC)no2)c(-n2nccn2)cc1F"
2.08

(a) Cc1ccc(C(=O)N2CC[C@H]2c2nc(-c3cccc(Cl)c3C)no2)c(-n2nccn2)c1
(b) Cc1ccc(-n2nccn2)c(C(=O)N2CC[C@H]2c2nnc(-c3ccccc3OC(F)(F)F)[nH]2)c1
Just curious, which one has the larger IC50 reading, a or b ? Please respond with the label that marks your chosen entry.
b

---

assayed-target: human orexin-2 receptor (Homo sapiens (Human))
Sequence (O43614 whole entry): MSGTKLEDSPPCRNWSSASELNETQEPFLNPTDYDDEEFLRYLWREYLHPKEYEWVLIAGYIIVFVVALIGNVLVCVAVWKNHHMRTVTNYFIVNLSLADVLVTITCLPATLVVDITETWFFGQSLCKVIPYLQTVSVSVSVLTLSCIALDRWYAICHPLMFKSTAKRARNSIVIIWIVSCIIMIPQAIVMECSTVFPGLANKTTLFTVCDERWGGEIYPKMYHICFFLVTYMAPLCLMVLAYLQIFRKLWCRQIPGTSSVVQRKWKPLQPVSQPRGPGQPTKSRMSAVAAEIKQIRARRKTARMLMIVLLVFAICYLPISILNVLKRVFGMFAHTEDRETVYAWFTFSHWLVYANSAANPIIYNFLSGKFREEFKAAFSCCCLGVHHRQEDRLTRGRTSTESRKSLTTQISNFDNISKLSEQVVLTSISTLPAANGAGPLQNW
assay-comment: Intracellular calcium measurements (FLIPR), antagonism of orexin-A response
test-settings: CHO cells expressing human orexin-2 receptor, 3 nM orexin-A, geometric mean if determined several times, read-out: IC50 OX2
property-measured: IC50 (nM)

// lookup IC50 for Cc1cccc(-c2ocnc2C(=O)N2CC[C@H]2c2nc(-c3ccccc3OC(F)(F)F)no2)c1 [Example 49]
305

// lookup IC50 for COc1c(Cl)cccc1-c1nc([C@@H]2CCN2C(=O)c2cc(Cl)c(C)cc2-n2nccn2)no1 [Example 113]
1

(1) Cc1c(Cl)cccc1-c1noc([C@@H]2CCN2C(=O)c2cc(OC(F)(F)F)ccc2-n2nccn2)n1 [Example 65]
(2) Cc1nc(C(=O)N2CC[C@H]2c2nc(-c3cccc(Cl)c3C)no2)c(-c2ccccc2C)s1 [Example 63]
(3) CCOc1ncccc1-c1nc([C@@H]2CCN2C(=O)c2ccc(C)cc2-n2nccn2)no1 [Example 97]
Ranking field: IC50; order: falling. // format: requested-order list of labels
1, 2, 3

---

assayed-target: human orexin-1 receptor (Homo sapiens (Human))
assay-comment: Intracellular calcium measurements (FLIPR), antagonism of orexin-A response
test-settings: CHO cells expressing human orexin-1 receptor, 3 nM orexin-A, geometric mean if determined several times, read-out: IC50 OX1
pIC50: −log10 of the molar value.
property-measured: pIC50

// known answers, use as guide
// lookup pIC50 for "COc1cc(C(=O)N2CC[C@H]2c2nc(-c3cccc(Cl)c3C)no2)c(-n2nccn2)cc1C"
6.40

// lookup pIC50 for "Cc1ccc(-n2nccn2)c(C(=O)N2CC[C@H]2c2nc(-c3ccccc3)no2)c1"
5.42

// lookup pIC50 for "Cc1c(Cl)cccc1-c1nc([C@@H]2CCN2C(=O)c2ccc(Cl)cc2-n2nccn2)no1"
6.50

(1) Cc1cc(C(=O)N2CC[C@H]2c2noc(-c3cccc(Cl)c3C)n2)c(-n2nccn2)cc1C
(2) COc1cc(C(=O)N2CC[C@H]2c2noc(-c3cccc(Cl)c3OC)n2)c(-n2nccn2)cc1C
(3) Cc1cc(C(=O)N2CC[C@H]2c2nc(-c3ccccc3OC(F)(F)F)no2)c(-n2nccn2)cc1C
(4) Cc1cc(C(=O)N2CC[C@H]2c2nnc(-c3ccccc3OC(F)(F)F)[nH]2)c(-n2nccn2)cc1C
Ranking field: pIC50; order: falling. // format: requested-order list of labels
1, 2, 3, 4
(1: 7.39, 2: 7.09, 3: 6.80, 4: 6.38)

(A) Cc1c(Cl)cccc1-c1noc([C@@H]2CCN2C(=O)c2nc(N(C)C)sc2-c2ccccc2)n1
(B) Cc1ccc(-n2nccn2)c(C(=O)N2CC[C@H]2c2nc(-c3ccccc3OC(F)(F)F)no2)c1
(C) Cc1ccc(-n2nccn2)c(C(=O)N2CC[C@H]2c2nc(-c3c(C)cccc3F)no2)c1
(D) COc1c(F)cccc1-c1noc([C@@H]2CCN2C(=O)c2cc(C)ccc2-n2nccn2)n1
Ranking field: pIC50; order: falling. // format: requested-order list of labels
A, B, D, C
(A: 7.37, B: 6.94, D: 6.19, C: 5.46)
